Measured Curve Class values are reported for all entries that follow.
Tested On: CIB1 and αIIb interaction (CIB1-GST : F-αIIb peptide) (Homo sapiens, UniProt Q99828)
Construct: made in house; host or cells: BL-21 plus RIL cells (E. coli)
Sequence (Q99828 whole entry): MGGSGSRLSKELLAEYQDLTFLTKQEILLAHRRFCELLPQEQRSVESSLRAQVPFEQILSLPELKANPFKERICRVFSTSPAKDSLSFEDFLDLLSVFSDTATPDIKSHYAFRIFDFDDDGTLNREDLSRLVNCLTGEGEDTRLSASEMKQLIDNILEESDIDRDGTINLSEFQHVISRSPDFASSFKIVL
Protocol: FP assay, 1536-well qHTS format (primary and confirmatory screen)
Type: binding
Run Conditions: qHTS primary screen hits, Table S2; negative sign = inhibitory curve; several classes where COUNT > 1
Answer with a number only.

Would you please look over these solved cases?
COC(=O)c1scc2c(O)cc(C(F)(F)F)nc12    -2.2
N[C@@H](Cc1ccc(Oc2cc(I)c(O)c(I)c2)c(I)c1)C(=O)O    -2.2
CC(C)NCC(O)c1cc(O)cc(O)c1.CC(C)NCC(O)c1cc(O)cc(O)c1.O=S(=O)(O)O (stereo not shown)    -2.4

// Curve Class value for `Cc1ccc(C)n1-c1sccc1C(=O)O` : -2.2

Documented Curve Class of `Cc1ccc(S(=O)(=O)Nc2cc(S(=O)(=O)c3ccc(C)cc3)c(O)c3cccnc23)cc1` : -2.4

Please fill in: Curve Class reported for `O=C(O)CCCC[P+](c1ccccc1)(c1ccccc1)c1ccccc1.[Br-]` = -2.4

# compound `O=C1C=CC(=O)N1c1ccc(N2CCOCC2)cc1` ; its Curve Class = -2.4

Form: compound = `Cc1ccccc1C(=O)c1no[n+]([O-])c1C(=O)c1ccccc1C.O=C(O)C(F)(F)F` ; Curve Class = -2.4

// recorded Curve Class for `CC1(C)N=C(Nc2nc3ccccc3o2)NC2=C1C(=O)CCC2.O=C(O)C(F)(F)F` : -2.2

Form field Curve Class, entry `Cc1ccc(S(=O)(=O)Nc2ccc(O)c3ccccc23)c(C)c1.O=C(O)C(F)(F)F` : -2.4

Input `CS(=O)(=O)c1ccc(C(=O)OCC(=O)N2CCN(CCC3CCCCC3)CC2)cc1[N+](=O)[O-].O=C(O)C(F)(F)F` . Output Curve Class: -1.4

The recorded Curve Class for `O=C(O)C(F)(F)F.OCc1cn(Cc2ccc(O)c3ncccc23)cn1` is -2.2

Notebook: `CCNC(=O)c1ccc(-c2ccc3ncnc(N4CCOCC4)c3c2)o1.O=C(O)C(F)(F)F` , Curve Class read as -2.4

The compound listed as `CN(C)CCN1C(=O)c2cccc3cc(N)cc(c23)C1=O` has a reported Curve Class of -1.2

Query `Oc1ccc(Cl)cc1Sc1cc(Cl)ccc1O` yields Curve Class of -2.4

Reported Curve Class ( `O=C(O)C(F)(F)F.O=C(c1cccs1)c1no[n+]([O-])c1C(=O)c1cccs1` ) = -1.2

`CNS(=O)(=O)c1ccc(Cc2c(-c3cccc(-c4ccccc4)c3)nn(-c3nc(C(=O)O)cs3)c2O)cc1.O=C(O)C(F)(F)F` yielded Curve Class of -3

Per the record, `COC(=O)c1cc(Cl)ccc1NS(=O)(=O)C(F)(F)F` has Curve Class of -2.2

Summary for this compound, `CN1CCN(c2ncc3nc(-c4cn(C)c5ccccc45)c(=O)n(Cc4cccs4)c3n2)CC1.O=C(O)C(F)(F)F` : Curve Class is -2.4

Curve Class recorded for this compound, `Cl.O=S(=O)(Nc1nccs1)c1ccc(NCc2cc(Cl)cc(Br)c2O)cc1` , is -1.4

// Curve Class value for O=C(O)C(F)(F)F.O=C1CC(c2ccccc2F)c2sc(N3CCOCC3)nc2N1 (stereo not shown) : -2.4

// Curve Class value for `CC[n+]1c(-c2ccccc2)c2cc(N)ccc2c2ccc(N)cc21.[Br-]` : -2.4
